B1: library; a variant is named by its letters at N, in order (parent)
chain: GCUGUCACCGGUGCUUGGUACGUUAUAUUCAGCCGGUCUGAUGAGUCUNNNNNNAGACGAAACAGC

Variants of: B1
Experiment: normalized RNA/DNA level with ligand (relative to sTRSVctl = 100) (log10 (% of sTRSVctl)); HEK293T overexpressing SLC46A1; ligand concentration (+) RNA-Seq: 6 mM; higher = less ribozyme self-cleavage, higher mRNA level
Conditions: with (6R,S)-folinic acid; ligand present: yes
So I've got a bunch of variants here, and I need their normalized RNA/DNA level with ligand (log10) values.
Answers are plain numbers.

{"MUTATION ID": "UUGGCA", "RECORDED MEASUREMENT": 2.06}
{"MUTATION ID": "GGAGUG", "RECORDED MEASUREMENT": 2.01}
{"MUTATION ID": "UGAUGA", "RECORDED MEASUREMENT": 2.01}
{"MUTATION ID": "CCGAAG", "RECORDED MEASUREMENT": 2}

Field: normalized RNA/DNA level with ligand (log10). Fill in for each record below.
1. UGUAGC
2. UUGGCG
3. UAACAG
4. AGUAGC
5. CCCACC
6. UCAAAU
7. ACGAGC

1.99
2.03
1.95
2
1.99
2
2.04

Field: normalized RNA/DNA level with ligand (log10). Fill in for each record below.
1. GAACGA
2. ACAGCG
3. CAUAGA
4. CAAGAU
5. CGACGA

[2.03, 2.01, 2.01, 2.01, 2]
